Value source: patent US9833497B2

Test system: Citrobacter diversus
Assay: MIC against Gram-negative bacteria: Citrobacter diversus
Type: cell-based
Details: Citrobacter diversus; 96-well plate, 5×10^5 CFU/mL, 37° C., 10 h
So I've got a bunch of substances here, and I need their MIC against C. diversus values.
Numeric answer only, unit µg/mL assumed.

Problem: State the recorded MIC against C. diversus for this entry: PRT1311 (LLDPCSKNNGGCSPYATCKSTGDGQRTCTCDTAHTVGDGLTCR; listed as Homo sapiens)
Solution: 50

Problem: State the recorded MIC against C. diversus for this entry: PRT1305 (SANACSAFKCHHGQCHISDQGEPYCLCQPGFSGEHCQ; listed as Homo sapiens)
Solution: 12.5

Problem: State the recorded MIC against C. diversus for this entry: PRT1249 (NQCACNSSPCEQQSGRCQCRERTFGARCD; listed as Homo sapiens)
Solution: 50

Problem: State the recorded MIC against C. diversus for this entry: PRT1327 (EINPCLENHGGCDKNAECTQTGPNQAACNCLPAYTGDGKVCT; listed as Homo sapiens)
Solution: 12.5
